- Experimental system: PTP1B (PTP1B1-321) (Homo sapiens, UniProt P18031)
- Construct: His-tag; made in house; host or cells: E. coli BL21 (DE3), pET21b
- Sequence (P18031 1-321): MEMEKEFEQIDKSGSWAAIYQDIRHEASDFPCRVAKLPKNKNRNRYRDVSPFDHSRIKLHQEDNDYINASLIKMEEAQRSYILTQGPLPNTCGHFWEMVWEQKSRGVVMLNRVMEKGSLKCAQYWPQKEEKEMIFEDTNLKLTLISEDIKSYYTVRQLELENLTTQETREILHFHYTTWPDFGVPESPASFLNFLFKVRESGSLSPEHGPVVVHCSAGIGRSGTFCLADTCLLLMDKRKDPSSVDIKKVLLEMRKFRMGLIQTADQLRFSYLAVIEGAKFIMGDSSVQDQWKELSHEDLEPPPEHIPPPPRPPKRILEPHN
- Method notes: PTP1B-catalyzed hydrolysis of pNPP in the presence of terpenoids (enzyme kinetics, IC50 from best-fit models)
- Assay type: biochemical, H. sapiens
- Measurement conditions: PTP1B1-321; mixed model, uncompetitive constant; read-out: Fit par. Ki,u, mixed model
Metric name: Ki (µM)
Supply the numeric figure in µM, leaving out any unit text.

Provide Ki, system PTP1B (PTP1B1-321) (Homo sapiens, UniProt P18031), entry CC1=C[C@H]2[C@@H](CC1)[C@H](C)CC[C@H]2[C@@H](C)C(=O)O [dihydroartemisinic acid, reference compound]
469

Provide Ki, system PTP1B (PTP1B1-321) (Homo sapiens, UniProt P18031), entry CC(C)=CCC=C(C)C1CC=C(C)CC1 (centres unmarked)
13.7

Provide Ki, system PTP1B (PTP1B1-321) (Homo sapiens, UniProt P18031), entry CC1=C[C@@H]2C(=C(C)CC[C@H]2C(C)C)CC1 [(+)-1 (10),4-cadinadiene]
169

Provide Ki, system PTP1B (PTP1B1-321) (Homo sapiens, UniProt P18031), entry CC(C)=CCC[C@](C)(O)[C@@H]1CC=C(C)CC1 [α-bisabolol, reference compound]
469

Provide Ki, system PTP1B (PTP1B1-321) (Homo sapiens, UniProt P18031), entry C=C(C)[C@@H]1CC[C@@H](C)[C@@H]2CCC(C)=C[C@@H]21
50.1
